Test system: HRAS
Assay: 3' UTR reporter interaction score (median-centred robust z-score of log2 firefly/Renilla activity); higher = less repression of the 3' UTR reporter
Conditions: HEK293T; 48 h
reported.endpoint: 3' UTR reporter interaction score
Provide a numeric answer; units are not to be included.

Reference set, count: 9
| sequence.code | 3' UTR reporter interaction score |
| --- | --- |
| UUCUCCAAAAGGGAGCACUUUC | 0.596 |
| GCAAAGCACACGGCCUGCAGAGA | -0.313 |
| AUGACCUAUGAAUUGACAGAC | 0.425 |
| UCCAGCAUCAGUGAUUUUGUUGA | -0.335 |
| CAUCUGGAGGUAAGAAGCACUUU | 0.165 |
| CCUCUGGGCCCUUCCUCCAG | 0.196 |
| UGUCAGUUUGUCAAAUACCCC | 0.221 |
| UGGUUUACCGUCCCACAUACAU | -0.0846 |
| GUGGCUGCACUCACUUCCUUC | -0.434 |

Below: the item to evaluate.
Prompt: Field request: 3' UTR reporter interaction score | item: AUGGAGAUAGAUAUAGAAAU
Response: 0.428

----------
Tested on: NOTCH1
Assay: 3' UTR reporter interaction score (median-centred robust z-score of log2 firefly/Renilla activity); higher = less repression of the 3' UTR reporter
Details: HEK293T; 48 h
reported.endpoint: 3' UTR reporter interaction score
Would you mind answering with just the numeric figure?

Consider the worked cases shown below.
| sequence.code | 3' UTR reporter interaction score |
| --- | --- |
| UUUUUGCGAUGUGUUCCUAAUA | 0.568 |
| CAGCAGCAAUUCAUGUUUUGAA | 0.0853 |
| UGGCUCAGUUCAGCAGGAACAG | -1.7 |
| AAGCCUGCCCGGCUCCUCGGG | -0.439 |
| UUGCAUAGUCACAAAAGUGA | 0.184 |

Prompt: Fill in the blank: the reported 3' UTR reporter interaction score of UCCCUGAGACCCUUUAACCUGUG is ____.
Response: -0.719

Prompt: Need 3' UTR reporter interaction score, item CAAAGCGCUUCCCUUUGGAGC
Response: 0.413

Prompt: // lookup 3' UTR reporter interaction score for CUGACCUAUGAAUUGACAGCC
Response: 0.282

Prompt: Given the entry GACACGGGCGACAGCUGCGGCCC , report its measured 3' UTR reporter interaction score.
Response: -0.641

----------
System: FBXW7
Assay: 3' UTR reporter interaction score (median-centred robust z-score of log2 firefly/Renilla activity); higher = less repression of the 3' UTR reporter
Conditions: HEK293T; 48 h
Each entry below lists one item and its recorded 3' UTR reporter interaction score value.
Could you respond with only the numeric value?

| sequence.code | endpoint.result |
| --- | --- |
| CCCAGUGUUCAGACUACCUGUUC | -0.85 |
| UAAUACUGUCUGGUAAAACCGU | -1.04 |
| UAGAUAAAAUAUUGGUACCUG | 0.354 |

Please look at the following sequence next.
Prompt: I would be grateful if you could share the reported 3' UTR reporter interaction score for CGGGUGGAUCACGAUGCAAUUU .
Response: 0.899
